Assay: Cmax in NOD SCID gamma mouse xenografted with human MCF7 cells at 20 mg/kg, po qd for 19 days
Type: ADME, organism-based
Set-up: dose 20 mg/kg, route oral
Conditions: in vivo
MEASURED_ATTRIBUTE: Cmax (nM)
Quick reminder: number only, in nM, skip the unit.

Exercise: I have this compound here, CC(F)(F)c1cc(F)ccc1-c1sc2cc(O)ccc2c1Oc1ccc(/C=C/C(=O)O)cc1 , and I need its recorded Cmax.
Solution: 1070

====

Experiment: AUC in NOD SCID gamma mouse xenografted with human MCF7 cells at 20 mg/kg, po qd for 19 days
Format: ADME, organism-based
Conditions: in vivo
MEASURED_ATTRIBUTE: AUC at 456 h (µM·h)
Quick reminder: number only, in µM·h, skip the unit.

Exercise: I have this molecule here, CC(F)(F)c1cc(F)ccc1-c1sc2cc(O)ccc2c1Oc1ccc(/C=C/C(=O)O)cc1 , and I need its recorded AUC at 456 h.
Solution: 3.23

====

Experiment: Cmax in C57BL/6 mouse at 3 mg/kg, po
Format: ADME, organism-based
Design: dose 3 mg/kg, route oral
Settings: in vivo
Output true (1) for Cmax not less than 500 nM; output false (0) otherwise.

Exercise: Can CC(F)(F)c1ccccc1-c1sc2cc(O)ccc2c1Oc1ccc(/C=C/C(=O)O)cc1 be said to have Cmax at or above 500 nM?
Solution: false (0)

Exercise: Can CC(C)c1ccccc1-c1sc2cc(O)ccc2c1Oc1ccc(/C=C/C(=O)O)cc1 be said to have Cmax at or above 500 nM?
Solution: true (1)

Exercise: Can Cc1cc(F)ccc1-c1sc2cc(O)ccc2c1Oc1ccc(/C=C/C(=O)O)cc1 be said to have Cmax at or above 500 nM?
Solution: true (1)

Exercise: Can O=C(O)/C=C/c1ccc(Oc2c(-c3ccc(C(F)(F)F)cc3)sc3cc(O)ccc23)cc1 be said to have Cmax at or above 500 nM?
Solution: true (1)

Exercise: Can O=C(O)/C=C/c1ccc(Oc2c(-c3ccc(F)cc3C(F)(F)F)sc3cc(O)ccc23)cc1 be said to have Cmax at or above 500 nM?
Solution: true (1)

Exercise: Can Cc1cc(-c2sc3cc(O)ccc3c2Oc2ccc(/C=C/C(=O)O)cc2)ccc1O be said to have Cmax at or above 500 nM?
Solution: false (0)

Exercise: Can CC/C(=C(/c1ccc(/C=C/C(=O)O)cc1)c1ccc2[nH]ncc2c1)c1ccc(F)cc1Cl be said to have Cmax at or above 500 nM?
Solution: true (1)

====

Experiment: Clearance in C57BL/6 mouse at 1 mg/kg, iv or 3 mg/kg, po
Format: ADME, organism-based
Conditions: in vivo
MEASURED_ATTRIBUTE: clearance (mL/min/kg)
Quick reminder: number only, in mL/min/kg, skip the unit.

# SMILES_TEXT, UNIT_TAG, clearance
records = [
    ("O=C(O)/C=C/c1ccc(Oc2c(-c3ccc(F)cc3)sc3cc(O)ccc23)cc1", "mL/min/kg", 22),
    ("CC/C(=C(/c1ccc(/C=C/C(=O)O)cc1)c1ccc2[nH]ncc2c1)c1ccc(F)cc1Cl", "mL/min/kg", 16),
    ("CC(F)(F)c1ccccc1-c1sc2cc(O)ccc2c1Oc1ccc(/C=C/C(=O)O)cc1", "mL/min/kg", 14),
    ("O=C(O)/C=C/c1ccc(Oc2c(-c3ccc(C(F)(F)F)cc3)sc3cc(O)ccc23)cc1", "mL/min/kg", 6),
    ("Cc1cc(F)ccc1-c1sc2cc(O)ccc2c1Oc1ccc(/C=C/C(=O)O)cc1", "mL/min/kg", 33),
]

Proceeding to the next molecule to report its clearance.
Exercise: I have this molecule here, CC(F)(F)c1cc(F)ccc1-c1sc2cc(O)ccc2c1Oc1ccc(/C=C/C(=O)O)cc1 , and I need its recorded clearance.
Solution: 28
